# Method: NCI Yeast Anticancer Drug Screen. Data for the mlh1 rad18 strain (AID 175)
# Experimental parameters: S. cerevisiae mlh1 rad18 strain growth inhibition; at 50.0 µM (retest, dose inferred, filed as 5.0)
Compounds without any hit were thinned out: in the full panel of roughly 79,000, 15% have a hit. Calls of active or inactive are those of the source. No stated cut-off is given here; in the data, active means growth inhibition above about 70%; inactive means the rest.
Possible outcomes: active, inactive

| Compound | Label class |
| --- | --- |
| COc1ccc(CN2COc3c(cc(Cl)c4cccnc34)C2)cc1 | active |
| CCCCCCCCCCOC(=O)c1cc[n+](C)cc1 | inactive |
| C#CCCCCCOC(=O)c1cc([N+](=O)[O-])cc([N+](=O)[O-])c1 | active |
| O=C(c1ccccc1)N1CCN(c2cccc(Cl)c2)CC1 | inactive |
| O=C1c2ccccc2C(=O)c2c(OCCOCCO)cccc21 | inactive |
| Cc1c(Cl)c(Cl)cc([N+](=O)[O-])c1Cl | inactive |
| O=C(O)Cc1cccc2c(=O)c3cccc([N+](=O)[O-])c3[nH]c12 | active |
| CCN(CC)C1Oc2cc3c(cc2C(c2ccc(OC)cc2)C1C)OCO3 (configuration not stated) | active |
| Cc1cccc2c1NC(c1c(C)[nH]c3ccccc13)C2 (configuration not stated) | inactive |
| CC1=CC(c2c(O)cc(O)c(C(=O)CCc3ccccc3)c2O)C(C(C)C)CC1 (configuration not stated) | active |
| CC1(C)CCC2(C(=O)O)CCC3(C)C(=CCC4C5(C)CC(O)C(O)C(C)(C(=O)O)C5CCC43C)C2C1 (configuration not stated) | active |
| NC(N)=NC(N)=Nc1ccc(-c2ccccc2)cc1 | active |
| N#Cc1cccc(C[P+](c2ccccc2)(c2ccccc2)c2ccccc2)c1 | inactive |
| CNC(C)C(=O)c1ccc2ccc3ccccc3c2c1 (configuration not stated) | inactive |
| COc1ccc(C2C3=C(CCCC3=O)Oc3cc4c(cc32)OCO4)c(OC)c1 (configuration not stated) | active |
| COC1=CC(=O)c2c(O)c3c(c(O)c2C1=O)C=C(C)OC3O (configuration not stated) | inactive |
| CC(C)[C@H](N)C(=O)NCCNC(=O)[C@@H](N)C(C)C | active |
| CCOC(=O)C1=C(C)NC(=O)NC1c1coc2cc(C)cc(C)c2c1=O (configuration not stated) | inactive |
| CC(=O)OCC1OC(OC2C=C(O[Si](C)(C)C)C[C@H]3C(=O)C=CC(=O)[C@@H]23)C(OC(C)=O)C(OC(C)=O)C1OC(C)=O (some centres not stated) | active |
| COC(=O)CCC(=O)c1ccc2c(c1)CC1(Cc3ccccc3C1)C2 | inactive |
| COC1OC(CO)C(O)C(OC(=O)c2ccc([N+](=O)[O-])cc2)C1OS(=O)(=O)c1ccc(C)cc1 (configuration not stated) | inactive |
| O=C1C2=C(c3ccccc31)C(c1ccccc1Cl)NC(=S)N2 (configuration not stated) | inactive |
| Cc1ncc(CO)c(C=NCCCCCCN=Cc2c(CO)cnc(C)c2[O-])c1[O-].[Cu+2] | inactive |
| Clc1nc(Cl)c(Cl)c(-c2ccccc2)n1 | active |
| O=S(c1ccccc1)c1c(Cl)c(Cl)nc(Cl)c1Cl (configuration not stated) | active |
| S=C(C(=S)N1CCOCC1)N1CCOCC1 | inactive |
| Cc1ccc(N=C2SC(=S)N(CCC[N+](C)(C)C)C2=Nc2ccc(C)cc2)cc1 | active |
| CCOC(=O)Cc1nc2ccccc2s1 | active |
| COC(=O)/C(C#N)=C1\NC(=O)CC(c2ccccc2)C1C#N (configuration not stated) | inactive |
| COc1ccc(-c2c(-c3ccccc3)c(C)nc3[nH]c(=S)[nH]c(=S)c23)cc1OC | active |
| Cc1ccc(SCc2nc3ccccc3c(C)[n+]2[O-])cc1 | active |
| CN(C)c1ccc(/C=C/c2nc3ccccc3[nH]2)cc1 | active |

====

# Method: NCI Yeast Anticancer Drug Screen. Data for the cln2 rad14 strain (AID 165);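 further: 0% = growth equal to vehicle treated cultures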
# Experimental parameters: S. cerevisiae cln2 rad14 strain, at 5.0 µM (retest, dose inferred, filed as 0.5), hits give high values
This is part of a sample that, as a whole, favours compounds with a hit. Of some 79,000 tested, about 15% had one in any assay.
# growth inhibition per entry

| Compound | Measurement units | growth inhibition |
| --- | --- | --- |
| Cc1c(C)c(C[P+](CCP(c2ccccc2)c2ccccc2)(c2ccccc2)c2ccccc2)c(C)c(C)c1C[P+](CCP(c1ccccc1)c1ccccc1)(c1ccccc1)c1ccccc1 | % | -14 |
| CC(C)Cn1cnc2c(SCc3cccc(F)c3)nc(N)nc21 | % | -5 |
| O=C1CCCCO1 | % | 3 |
| COC(=O)c1nc(=S)[nH]c(C(=O)OC)c1C(=O)c1ccc(O)c(OC)c1 | % | -4 |
| CC1=CC(=O)c2c(O)c3c(c(O)c2C1=O)C1C(O)C(C3=O)C23C(=O)c4c(O)c(C)cc(O)c4C(O)=C2C(=O)CC(O)C13 (centres undefined) | % | 14 |
| [N-]=[N+]=Nc1ccnc2ccc(C3CCCCC3)cc12 | % | 6 |
| CC(C)(CN1CCCCC1)C(=O)CC(SCCS(=O)(=O)O)c1ccc(Cl)c(Cl)c1 (centres undefined) | % | 38 |
| C[n+]1c(-c2ccc(/C=N\Nc3nnc(S)n3/N=C/c3ccc(-c4cn5ccccc5[n+]4C)cc3)cc2)cn2ccccc21 | % | 4 |
| O=S(=O)(Nc1ccccc1C(F)(F)F)c1ccc(F)cc1 | % | -21 |
| O=C1CCSC(=S)N1c1ccccc1C(F)(F)F | % | 7 |
| CC12CCC(=O)C=C1CCC1C2C(O)CC2(C)C(c3csc(N)n3)CCC12 (centres undefined) | % | 23 |
| CC(C)c1ccc(CN(CCO)Cc2ccc(C(C)C)cc2)cc1 | % | 7 |
| O=C(CBr)c1cccc(OC(=O)c2ccccc2)c1 | % | 88 |
| CCCCCCCCCCCC[n+]1cc2ccccc2cc1C | % | 97 |
| CC1N(O)C(c2ccccc2)C(c2ccccc2)=[N+]1[O-] (centres undefined) | % | 22 |
| O=[N+]([O-])/C=C/C=C/c1ccco1 | % | 2 |
| Cc1ccc[n+](CC(=O)C2CCC3C4CC=C5CC(O)CCC5(C)C4CCC23C)c1 (centres undefined) | % | 6 |
| CC(O)c1cc(-c2ccc(Cl)cc2)nc2ccccc12 (centres undefined) | % | 14 |
| C/C=C/c1cc2c(cc1O)CC[C@@H]1[C@@H]2CC[C@]2(C)[C@@H](O)CC[C@@H]12 | % | 6 |
| COc1ccc(/C=C2\CN(C)C/C(=C\c3ccc(OC)cc3)C2=O)cc1 | % | 15 |
| CC1(C)CC(=N/O)/C(=N/O)C(=N\NC(N)=S)/C1 | % | -12 |
| COc1cc2c(c(C)c1O)[C@H]1COc3ccccc3[C@H]1O2 | % | 10 |
| N=C(N)SCc1cc(Cl)cc(Cl)c1O | % | -18 |
| CC(C)c1ccc(C(=O)C2CC2)cc1 | % | 9 |
| Cn1cnc([N+](=O)[O-])c1Sc1nc2ccccc2s1 | % | 35 |
| Cc1ccc(OC/C=C/c2cccc(C#N)c2)cc1 | % | -6 |
| CCOC(=O)/C(=C\n1c(=O)sc2ccccc21)C(=O)c1ccccc1 | % | 22 |
| O=C(O)/C(Cl)=C(\Cl)C(=O)Nc1c(Cl)cccc1Cl | % | 1 |
| CC(CCC(=O)O)(c1cc(Br)c(O)c(Br)c1)c1cc(Br)c(O)c(Br)c1 | % | -16 |
| COc1ccc(C2=Nc3cc(C)c(C)cc3NC(c3ccccc3)C2)cc1 (centres undefined) | % | 1 |
| Cc1ccc2c(c1)C1(SC(C)C(=O)N1c1ccc(Cl)cc1)C(=O)N2CN1CCOCC1 (centres undefined) | % | -4 |
| CCN(CC)CCCCCCNc1cc(C)cc2ccc(C)nc12 | % | 0 |
| CC1=C(C(=O)Nc2ccccc2)C(c2cccc3ccccc23)C(C(=O)Nc2ccccc2)=C(C)N1 | % | -2 |
| O=c1c2ccccc2c2ccccc2c(=O)n1-c1cc2c3ccccc3ccc2c2ccccc12 | % | -11 |

====

# Method: NCI Yeast Anticancer Drug Screen. Data for the rad50 strain (AID 155);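 further: 0% = growth of vehicle-only cultures of the same strain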
# Experimental parameters: S. cerevisiae rad50 strain growth inhibition; at 50.0 µM; hits give high values
About 79,000 compounds went through this panel and 15% of them were active in at least one assay; those are over-represented in the sample as a whole.
Hi all, reminder that labels come from growth inhibition, split as range A = under 40%, range B = from 40% up to 90%, range C = 90% and over

| Molecule | Label class |
| --- | --- |
| O=C(CC1(O)C(=O)Nc2c(Cl)cccc21)c1ccc(Cl)cc1 (stereo not drawn) | range A |
| Cn1cc(CCC(=O)C2C=CC=CC2=NC(=O)CCCl)c2ccccc21 (stereo not drawn) | range A |
| CC12C=CC(=O)C=C1CCC1C3CCC(O)(C(=O)CO)C3(C)CC(O)C12F (stereo not drawn) | range A |
| O=c1c2ccccc2c2ccccc2c(=O)n1-c1cc2c3ccccc3ccc2c2ccccc12 | range A |
| CN(Cc1cnc2nc(N)nc(N)c2n1)c1ccc(C(=O)NC(CCC(=O)O)C(=O)O)c(Cl)c1Cl (stereo not drawn) | range C |
| Cc1c(O)/c(=C\O)c2nc3c(=O)ccc(C(=O)NCCN(C)C)c3[nH]c2c1=O | range B |
| CC1C(=O)C(C)C(c2ccccc2)N(C)C1c1ccccc1 (stereo not drawn) | range C |
| c1ccc2c(c1)N=c1ccccc1=P21c2ccccc2Nc2ccccc21 | range B |
| CCOc1ccc2c(c1)n([O-])c1cc(Br)ccc1[n+]2=O | range A |
| CCN(CC)c1ccc(N=Nc2ccc(Br)cn2)c(O)c1 | range C |
| CCCCCCCCCCCCCCCC1(OC)C[N+](C)(C)CCO1 (stereo not drawn) | range C |
| CCCCNc1cccc2ncccc12 | range A |
| CCCCCCCNC1CCCc2cc(OC)ccc21 (stereo not drawn) | range B |
| CCCCCc1cc(Cl)cc(Cl)c1O | range B |
| O=C(Nc1ccc(S(=O)(=O)NC2CCCCC2)cc1)OC1CCCCCCC1 | range B |
| O=C(Nn1c(-c2ccccc2)nc2ccccc2c1=O)c1ccccc1O | range B |
| O=C(O)CCC(=O)NCCNC(=O)CC(=O)O | range A |
| O=C(CCCO)N/N=C\c1ccc([N+](=O)[O-])s1 | range A |
| CCOC(=O)C(NNc1ccccc1)C(c1ccccc1)[P+](c1ccccc1)(c1ccccc1)c1ccccc1 (stereo not drawn) | range C |
| O=c1cc(-c2ccccc2)oc2ccc(-c3ccc4oc(-c5ccccc5)cc(=O)c4c3)cc12 | range A |
| O=C1c2ccccc2C(=O)c2sc(Nc3cc(Cl)ccc3Cl)nc21 | range B |
| O=C(OC1=C(Br)C(=O)c2ccccc2C1=O)c1ccccc1 | range B |
| Nc1cc(Br)c2cccnc2c1O | range C |
| O=C(N/N=C/c1ccc2c(c1)OCO2)c1ccc([N+](=O)[O-])cc1 | range A |
| COC(=S)S | range B |
| CCCC(=S)N1CCOCC1 | range A |
| Cc1cc(C(=O)CBr)c(CN2C(=O)c3ccccc3C2=O)c(=O)n1C | range B |
| Cc1ccc(N2C(=O)CSC2=S)cc1Br | range C |
| Cn1c2ccccc2c2cc3cnccc3cc21 | range C |
| c1ccc(CC(Cc2ccccc2)c2cccnc2)cc1 | range C |
| CSC(=S)NN=C(c1ccccc1)c1ccccc1 | range B |
| O=C1OC(=O)c2ccc([N+](=O)[O-])c3cccc1c23 | range B |
| CSc1nnc(CCC(=O)Nc2c(C)cccc2C(C)(C)C)o1 | range A |
| COc1ccc(SSc2ccc(OC)n[n+]2[O-])[n+]([O-])n1 | range C |
